Tested system: recombinant mouse protein kinase A (catalytic subunit) (mouse, UniProt P05132 2-351)
Assay name: PKA radiometric kinase assay with biotinylated kemptide, Dixon plot, versus ATP
Side-chain parts run from the residue outwards. [ ]: non-standard residue; d: D form. Dap = NC[C@H](N)C(=O)O
Endpoint label: pKi
Scale: negative log10 of molar concentration, which is what pKi denotes.

// returns reported pKi for input Ac-LRRA[Dap]([Ac-ATPγS])LG-OH [kemptide-ATPγS conjugate]
5.02
